# Target Or System: T1, ZFP SBS#926 (synthetic)
# T1 chain: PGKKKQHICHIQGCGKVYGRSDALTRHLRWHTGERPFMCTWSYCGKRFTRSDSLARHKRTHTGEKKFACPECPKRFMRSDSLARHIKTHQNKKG
# Assay: EMSA
# Assay Context: tags: MBP fusion
Measurement Kind: Kd (nM)
Answers are plain numbers, in nM.

Recall and state the measured Kd for GTGGTGGTG (dsDNA) DNA 1: GTGGTGGTG DNA 2: CACCACCAC .
7.5
